Each recorded value in this set is attributed to ChEMBL document CHEMBL4680102.

biological target: N-lysine methyltransferase SMYD2 (Homo sapiens, UniProt Q9NRG4); assay: Inhibition of SMYD2 (unknown origin)
Sequence (Q9NRG4 whole entry): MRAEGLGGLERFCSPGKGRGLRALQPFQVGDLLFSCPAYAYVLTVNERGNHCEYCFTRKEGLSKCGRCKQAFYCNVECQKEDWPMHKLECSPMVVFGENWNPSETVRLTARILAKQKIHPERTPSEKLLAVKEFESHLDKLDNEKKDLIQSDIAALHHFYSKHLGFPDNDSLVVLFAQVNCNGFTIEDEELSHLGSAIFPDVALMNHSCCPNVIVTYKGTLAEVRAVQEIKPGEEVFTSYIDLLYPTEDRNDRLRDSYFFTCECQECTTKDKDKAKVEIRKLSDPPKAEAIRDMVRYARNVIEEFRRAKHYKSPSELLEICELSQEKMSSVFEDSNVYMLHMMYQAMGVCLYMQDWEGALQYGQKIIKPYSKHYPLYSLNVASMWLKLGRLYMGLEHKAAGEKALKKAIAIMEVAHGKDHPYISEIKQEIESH
measurement_label: pIC50
Numbers only, as −log10 of the molar value.

The following molecules have reported results that may help.
substance_smiles: O=C(NCCCN1CCCC1)c1cc(-c2ccccc2F)nc2[nH]ncc12
pIC50: 4.77

substance_smiles: N#Cc1cc(C(=O)NCCCN2CCCC2)cc(-c2ccccc2N2CCN(CCc3c[nH]c4ccccc34)CC2)c1
pIC50: 7.55

substance_smiles: CNc1cc(C(=O)NCCCN2CCCC2)cc(-c2ccccc2C)n1
pIC50: 4.75

substance_smiles: Cc1ccccc1-c1cc(C(=O)NCCCN2CCCC2)ccn1
pIC50: 5.06

# input GET /values?readout=pIC50&item= `O=C(NCCCN1CCCC1)c1cccc(-c2ccccc2N2CCN(CCc3ccccc3)CC2)c1`
# output 6.47
